# details: 343.15 K; 101.33 kPa; Liquid; Vibrating tube method
Overview of reported mass density across a group of compounds:

>  <compound>
CCCCCCCCn1cc[n+](C)c1.O=S(=O)([N-]S(=O)(=O)C(F)(F)F)C(F)(F)F

>  <mass density, kg/m3>
1280.8

$$$$
>  <compound>
CCCCCCCCCCn1cc[n+](C)c1.O=S(=O)([N-]S(=O)(=O)C(F)(F)F)C(F)(F)F

>  <mass density, kg/m3>
1239.9

$$$$
>  <compound>
CCCCn1cc[n+](C)c1.O=S(=O)([O-])C(F)(F)F [1-butyl-3-methylimidazolium trifluoromethanesulfonate]

>  <mass density, kg/m3>
1262.3

$$$$
>  <compound>
CCCCCC[n+]1ccn(C)c1.O=S(=O)([N-]S(=O)(=O)C(F)(F)F)C(F)(F)F

>  <mass density, kg/m3>
1329.8

$$$$
>  <compound>
N#CC[n+]1ccccc1.O=S(=O)([N-]S(=O)(=O)C(F)(F)F)C(F)(F)F

>  <mass density, kg/m3>
1587.3

$$$$
>  <compound>
CCCC[N+]1(C)CCCC1.FC(F)(F)C(F)(F)[P-](F)(F)(F)(C(F)(F)C(F)(F)F)C(F)(F)C(F)(F)F

>  <mass density, kg/m3>
1535.5

$$$$
>  <compound>
CCCCCCCCCCCCCC[P+](CCCCCC)(CCCCCC)CCCCCC.O=S(=O)([N-]S(=O)(=O)C(F)(F)F)C(F)(F)F

>  <mass density, kg/m3>
1031.5

$$$$

* * *

Some molecules, each annotated with its measured mass density.
# details: 313.15 K; 101.33 kPa; Liquid; Vibrating tube method

>  <molecule>
CCCCCCCCn1cc[n+](C)c1.O=S(=O)([N-]S(=O)(=O)C(F)(F)F)C(F)(F)F

>  <mass density [kg/m3]>
1307

$$$$
>  <molecule>
CCCCCCCCCCCCCC[P+](CCCCCC)(CCCCCC)CCCCCC.O=S(=O)([N-]S(=O)(=O)C(F)(F)F)C(F)(F)F

>  <mass density [kg/m3]>
1052.9

$$$$
>  <molecule>
CCCCn1cc[n+](C)c1.O=S(=O)([O-])C(F)(F)F [1-butyl-3-methylimidazolium trifluoromethanesulfonate]

>  <mass density [kg/m3]>
1285.6

$$$$
>  <molecule>
CCCCCCCCCCn1cc[n+](C)c1.O=S(=O)([N-]S(=O)(=O)C(F)(F)F)C(F)(F)F

>  <mass density [kg/m3]>
1265.3

$$$$
>  <molecule>
Cn1cc[n+](C)c1.N#C[S-] [1,3-dimethylimidazolium thiocyanate]

>  <mass density [kg/m3]>
1147.8

$$$$
>  <molecule>
CCCC[N+]1(C)CCCC1.FC(F)(F)C(F)(F)[P-](F)(F)(F)(C(F)(F)C(F)(F)F)C(F)(F)C(F)(F)F

>  <mass density [kg/m3]>
1566.8

$$$$
>  <molecule>
CCCCCC[n+]1ccn(C)c1.FC(F)(F)C(F)(F)[P-](F)(F)(F)(C(F)(F)C(F)(F)F)C(F)(F)C(F)(F)F

>  <mass density [kg/m3]>
1535.7

$$$$
>  <molecule>
C[N+]1(CC#N)CCCC1.O=S(=O)([N-]S(=O)(=O)C(F)(F)F)C(F)(F)F

>  <mass density [kg/m3]>
1523.8

$$$$
